# Tested target: hCRTH2 (Homo sapiens, UniProt Q9Y5Y4)
# Construct: expressed in transfected cells; host or cells: HEK (human embryonic kidney) cells expressing hCRTH2
# Sequence (Q9Y5Y4 1-395): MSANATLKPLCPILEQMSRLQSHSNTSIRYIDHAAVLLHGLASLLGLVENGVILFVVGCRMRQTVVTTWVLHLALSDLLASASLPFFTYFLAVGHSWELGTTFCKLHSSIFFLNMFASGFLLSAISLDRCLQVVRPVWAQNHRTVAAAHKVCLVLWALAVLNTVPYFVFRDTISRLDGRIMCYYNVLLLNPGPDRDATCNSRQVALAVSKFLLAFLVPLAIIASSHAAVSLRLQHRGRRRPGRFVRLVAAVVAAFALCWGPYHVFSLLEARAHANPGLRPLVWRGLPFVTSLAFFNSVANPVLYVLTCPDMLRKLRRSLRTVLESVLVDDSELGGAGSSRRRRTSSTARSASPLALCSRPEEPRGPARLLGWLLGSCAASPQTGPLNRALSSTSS
# Procedure text: Radioligand Binding Assay A ([3H]PGD2 filtration binding, HEK-hCRTH2 membranes)
# Test parameters: Table A, rated A-D
pKi: −log10 of the molar value.
Measured property: pKi

Before answering, review these 2 worked examples.
Quick check: pKi of O=C(O)CCCCc1cc2cc(C(=O)NCc3ccc(Cl)cc3)ccc2nc1-c1ccccc1 ?
7.70 to 8.68

Quick check: pKi of CC(NC(=O)c1ccc2nc(-c3ccccc3)c(CCCCC(=O)O)cc2c1)c1ccncc1 (stereo not drawn) ?
6.70 to 7.70

Would you kindly look at the next entry?
Quick check: pKi of COc1ccc([C@@H](NC(=O)c2cnc3nc(-c4ccc(F)cc4)c(CCCCC(=O)O)cc3c2)C(F)(F)F)cc1 ?
6.70 to 7.70

* * *

# Tested target: hCRTH2 (Homo sapiens, UniProt Q9Y5Y4)
# Construct: expressed in transfected cells; host or cells: HEK (human embryonic kidney) cells expressing hCRTH2
# Procedure text: Radioligand Binding Assay B (scintillation proximity assay, [3H]-PGD2, HEK-hCRTH2 membranes)
# Test parameters: Table B, Radioligand Binding Assay B (SPA), rated A-D
pKi: −log10 of the molar value.
Measured property: pKi

Before answering, review these 3 worked examples.
Quick check: pKi of CN(Cc1ccc(F)cc1)C(=O)c1ccc2nc(-c3ccc(Cl)cc3)c(CCCCC(=O)O)cc2c1 ?
7.70 to 8.68

Quick check: pKi of N#Cc1ccccc1N1CCN(C(=O)c2ccc3nc(-c4ccc(Cl)cc4)c(CCCCC(=O)O)cc3c2)CC1 ?
7.70 to 8.68

Quick check: pKi of O=C(O)CCCCc1cc2cc(C(=O)NC3CC(=O)Nc4ccccc43)ccc2nc1-c1ccc(Cl)cc1 (centres unmarked) ?
7.70 to 8.68

Next:
Quick check: pKi of O=C(O)CCCCc1cc2cc(C(=O)N3CCN(c4ccccc4Cl)CC3)ccc2nc1-c1ccc(F)cc1 ?
7.70 to 8.68

Quick check: pKi of CN(Cc1ccc(F)cc1)C(=O)c1ccc2nc(-c3ccccc3)c(CCCCC(=O)O)cc2c1 ?
6.70 to 7.70

The origin of these recorded values is patent US9290453B2.
